Molecular target: Nucleoprotein (Lymphocytic choriomeningitis virus (strain Armstrong))
Experiment: qHTS for Inhibitors of the Functional Ribonucleoprotein Complex (vRNP) of Lymphocytic Choriomeningitis Arenaviruses (LCMV): LCMV Primary Screen - GLuc reporter signal (AID 1347086); further: nearly all actives have a fitted effect of over 70% in size
Conditions: LCMV minigenome vRNP cell assay, Gaussia luciferase reporter; series mostly up to 57.5 µM
Inconclusive results are not listed. The source made the active and inactive calls. The call rests on the fitted dose curve.
Possible outcomes: active, inactive

| compound | qualitative label |
| --- | --- |
| N#Cc1cc([N+](=O)[O-])c2sc(C(N)=O)[n+]([O-])c2c1 | inactive |
| C[C@@H](NCCc1ccc(O)cc1)[C@@H](O)c1ccc(O)cc1 | inactive |
| Oc1cc(O)c2c(c1)O[C@H](c1ccc(O)c(O)c1)[C@@H](O)C2 | inactive |
| NCCCS(=O)(=O)O | inactive |
| CC1(C)CC(=O)c2c(C(F)(F)F)nn(-c3ccc(C(N)=O)c(NC4CCC(O)CC4)c3)c2C1 (stereo not given) | active |
| NC1CCC(Nc2nc(Nc3ccc(C(=O)N4CCCCC4)cc3)c3ncn(-c4cccc(F)c4)c3n2)CC1 (stereo not given) | inactive |
| CNCCC(Oc1ccccc1C)c1ccccc1 (stereo not given) | inactive |
| CCCCOC(=O)C(C)OC(=O)CCC (stereo not given) | inactive |
| O=C1c2c(O)cc(O)cc2O[C@H](c2cc(O)c(O)c(O)c2)[C@H]1O | inactive |
| c1ccc(CN2CCC3(CCCc4ccccc43)CC2)cc1 | inactive |
| CN(C)S(=O)(=O)c1ccc2c(c1)/C(=C/c1cc3c([nH]1)CCCC3)C(=O)N2 | inactive |
| CC(C)(O)c1ccc2c(c1)CCC1C(C)(C(=O)O)CCCC21C (stereo not given) | inactive |
| CC(C)(O)c1cc2nc(-c3cnc(N)nc3)nc(N3CCOCC3)c2s1 | active |
| NCC1CCC(C(=O)O)CC1 (stereo not given) | inactive |
| COCc1nc2c([nH]1)c(=O)n(C)c(=O)n2CC(C)C | inactive |
| CC1=C(C(=O)O)N2C(=O)C(NC(=O)CCCC(=O)O)C2SC1 (stereo not given) | inactive |
| C[C@H]1C/C=C/[C@@H]2[C@@H]3O[C@]3(C)[C@@H](C)[C@H]3[C@H](Cc4ccccc4)NC(=O)[C@]32OC(=O)O/C=C/[C@](C)(O)C1=O | inactive |
| CCN1CCC(n2cc(CNc3cc(Cl)c4ncc(C#N)c(Nc5ccc(F)c(Cl)c5)c4c3)nn2)CC1 | inactive |
| O=C(CCN1CCN(C(=O)OCc2cc(Cl)cc(Cl)c2)CC1)c1ccc2[nH]c(=O)oc2c1 | inactive |
| COc1ccc(CCN)cc1 | inactive |
| O=C(O)CCCc1c[nH]c2ccccc12 | inactive |
| CC1(C)CC[C@]2(C(=O)O)[C@H](O)C[C@]3(C)C(=CCC4[C@@]5(C)C[C@H](O)[C@H](O)[C@@](C)(CO)C5CC[C@]43C)[C@@H]2C1 (stereo not given in full) | inactive |
| OCCc1c[nH]c2ccccc12 | inactive |
| Nc1cc(Cl)c(NC2=NCCN2)c(Cl)c1 | inactive |
| O=C1Nc2ccc(Cl)cc2C(C#CC2CC2)(C(F)(F)F)O1 (stereo not given) | inactive |
| Oc1cc2c(cc1O)C1c3ccc(O)c(O)c3OCC1(O)C2 (stereo not given) | inactive |
| COc1c2ccoc2nc2c(OC)c(O[C@@H]3O[C@H](C)[C@@H](O)[C@@H](O)[C@H]3O)ccc12 | inactive |
| C[C@@H]1CC(=O)[C@H]2CC(CO)=CCC[C@@H]2[C@@]1(C)CC/C(=C/CO)CO | inactive |
| CC(=O)OCC1=C(C(=O)O)N2C(=O)[C@@H](NC(=O)Cc3ccccc3)[C@H]2SC1 | inactive |
| COc1cc2c(cc1CC=C(C)C)C(=O)C[C@@H](c1ccc(O)cc1)O2 | inactive |
| O=c1ncn2nc(Sc3ccc(F)cc3F)ccc2c1-c1c(Cl)cccc1Cl | inactive |
| CC1(C)OC(=O)C=C[C@]2(C)[C@H]3CC[C@@]4(C)[C@H](c5ccoc5)OC(=O)[C@H]5O[C@]54[C@]3(C)C(=O)C[C@@H]12 | inactive |
| O=c1cc(-c2ccccc2)oc2cc(O)ccc12 | inactive |
| OCCC(O)CO (stereo not given) | inactive |
| NCCCC(=O)O | inactive |
| Nc1nccc(-c2ccc3noc(-c4ccc(Cl)cc4)c3c2)n1 | active |
| Cc1c(O)c2ccccc2oc1=O | inactive |
| NC1(C(=O)N[C@@H](CCO)c2ccc(Cl)cc2)CCN(c2ncnc3[nH]ccc23)CC1 | active |
| CC(C)N(CCCNC(=O)Nc1ccc(C(C)(C)C)cc1)C[C@H]1O[C@@H](n2cc(Br)c3c(N)ncnc32)[C@H](O)[C@H]1O | inactive |
| C=C1CCC(OC(C)=O)C2(C)CCC3C(C)C(=O)OC3C12O (stereo not given) | inactive |
| N#C/C(=C\c1ccc(O)c(O)c1)C(=O)NCCc1ccccc1 | inactive |
| NC(CCCP(=O)(O)O)C(=O)O (stereo not given) | inactive |
| CC(=O)OCCC(C)C | inactive |
| CC/C=C\CCOC(C)OCC (stereo not given) | inactive |
| CCCCCC1CCC(=O)O1 (stereo not given) | inactive |
